Reported PBM E-score by item:
Biological target: Gcr1 (UniProt P07261)
Sequence: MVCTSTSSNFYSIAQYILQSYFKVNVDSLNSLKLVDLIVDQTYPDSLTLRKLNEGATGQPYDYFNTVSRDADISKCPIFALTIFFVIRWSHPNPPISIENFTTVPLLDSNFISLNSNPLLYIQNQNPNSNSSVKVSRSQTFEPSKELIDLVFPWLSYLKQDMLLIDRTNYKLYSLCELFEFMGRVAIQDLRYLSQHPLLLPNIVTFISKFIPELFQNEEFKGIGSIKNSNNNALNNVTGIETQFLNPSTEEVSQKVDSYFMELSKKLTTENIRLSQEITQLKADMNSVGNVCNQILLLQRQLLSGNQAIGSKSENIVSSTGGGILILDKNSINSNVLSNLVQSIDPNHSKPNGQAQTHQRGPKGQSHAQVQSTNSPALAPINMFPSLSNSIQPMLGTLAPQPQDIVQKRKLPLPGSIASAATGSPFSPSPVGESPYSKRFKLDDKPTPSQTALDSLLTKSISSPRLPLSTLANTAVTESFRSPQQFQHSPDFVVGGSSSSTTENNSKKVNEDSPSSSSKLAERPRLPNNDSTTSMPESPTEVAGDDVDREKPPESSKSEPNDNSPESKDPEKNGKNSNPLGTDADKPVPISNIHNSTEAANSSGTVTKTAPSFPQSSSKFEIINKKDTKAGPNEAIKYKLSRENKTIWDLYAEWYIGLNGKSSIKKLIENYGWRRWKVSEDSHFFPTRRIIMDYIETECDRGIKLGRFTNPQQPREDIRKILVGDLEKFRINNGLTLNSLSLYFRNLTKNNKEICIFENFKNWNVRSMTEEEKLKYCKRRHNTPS
Test: PBM E-score (8-mer binding enrichment) (E-score (-0.5 to 0.5)); higher = stronger / more preferred TF binding
Details: protein concentration: 100 nM; construct: GST-full length
Over roughly 33,000 sequences, “E-score (-0.5 to 0.5)” has its median near -0.011; the highest 2% begin near 0.28. The sample holds the highest values, similar sequences and a random draw of the others, so the mix is not that of the screen.
# respond with the number and nothing more

// known answers, use as guide
Polymer Sequence	Target Of Assay	PBM E-score
CGGTTGGA	Gcr1 (UniProt P07261)	0.0351
CCACTAGA	Gcr1 (UniProt P07261)	0.235
ATACCAAC	Gcr1 (UniProt P07261)	-0.00844
AGACACTA	Gcr1 (UniProt P07261)	-0.0252
CTGGATGC	Gcr1 (UniProt P07261)	0.425
TACCTCTA	Gcr1 (UniProt P07261)	0.238
CTGGCGCC	Gcr1 (UniProt P07261)	0.319
GAAGCACA	Gcr1 (UniProt P07261)	0.117
ACGGAAGC	Gcr1 (UniProt P07261)	0.344
CGCGAACA	Gcr1 (UniProt P07261)	-0.00841

Request: Write PBM E-score of `ACAGCGTC` ; system used: Gcr1 (UniProt P07261)
Response: -0.0458

Request: Specify PBM E-score for `CTCCCAAG` , system Gcr1 (UniProt P07261).
Response: 0.0273

Request: Report value only: PBM E-score, Gcr1 (UniProt P07261), `GTCAGGAA`
Response: 0.104

Request: State PBM E-score on Gcr1 (UniProt P07261). Entry: `ACAAGACC`
Response: -0.0386

Request: Quote PBM E-score with test system Gcr1 (UniProt P07261) for `ATGGATGC`
Response: 0.389

Request: Under Gcr1 (UniProt P07261): report PBM E-score of `AACGTCTA` .
Response: 0.00101

Request: Quote Gcr1 (UniProt P07261) PBM E-score for entry `CCACTACA` .
Response: 0.194

Request: Enter measured PBM E-score, system Gcr1 (UniProt P07261), for the sequence shown: `ACTGGGTC`
Response: -0.0289

Request: Please tell me the measured PBM E-score for `ATGGCGCC` ; system: Gcr1 (UniProt P07261).
Response: 0.343

Request: Enter PBM E-score (test system Gcr1 (UniProt P07261)) for `ACCTATCC`
Response: 0.0168
